# credit: PubChem BioAssay (NCI)

tested on: NCI-H23 lung; test: NCI-60 one-dose screen, 48 h (100 = growth as untreated, 0 = no growth, -100 = all killed); settings: 10 µM unless noted
This is part of a sample that, as a whole, favours compounds with a hit. Of some 83,000 tested, about 20% had one in any assay.
RESULT TYPE: growth (%)
Give a bare numeral; the unit % is implied.

[[record]]
compound = "c1ccc([Se]CCCN2CCN(CCC[Se]c3ccccc3)CC2)cc1"
observed_result = 106

[[record]]
compound = "COc1ccc(/C=C/C(=O)c2ccc(Oc3ncnc4ccccc34)cc2)cc1OC"
observed_result = 81.9

[[record]]
compound = "CC(=S)Nc1ccccc1"
observed_result = 95.7


Briefly, growth measured for CCc1cccc(-c2ccccc2)c1 : 107

Briefly, growth measured for CC(CN(C)C)CN1c2ccccc2CCc2ccccc21 (stereo unspecified) : 83.3

Briefly, growth measured for Cc1cccc(CC(=O)c2ccccc2)n1 : 94.5

Briefly, growth measured for CCOC(=O)CSc1nnc(-c2cc3c([nH]c4ccccc43)c(-c3cccc(O)c3)n2)n1-c1ccc(C)cc1 : 97

Briefly, growth measured for COc1cc(/C=C/C(=O)c2ccc(Oc3ncnc4ccccc34)cc2)cc(OC)c1OC : 80.3

Briefly, growth measured for O=C(Nc1ccc(-n2cc(-c3ccncc3)c(-c3ccc(O)c(Cl)c3)n2)cc1)Nc1cc(C(F)(F)F)cc(C(F)(F)F)c1 : 47.5

Briefly, growth measured for COc1ccc(-c2[nH]c3ccccc3c2/C=C(\C#N)S(=O)(=O)c2ccccc2)cc1 : 17.5

Briefly, growth measured for Cc1nc(N)nc(SCc2ccccc2)c1Br : 93.7
